Molecular target: T1, FZD8 CRD (Homo sapiens, UniProt Q9H461)
T1 construct: K31-D155; GPI anchor signal (C); expressed in transfected cells; host or cells: CHO cells, lentiviral pLenti-puro
T1 sequence (Q9H461 31-155): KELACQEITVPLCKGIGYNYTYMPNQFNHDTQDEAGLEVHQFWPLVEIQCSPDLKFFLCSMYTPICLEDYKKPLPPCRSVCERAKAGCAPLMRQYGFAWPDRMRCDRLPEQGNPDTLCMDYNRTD
Test: Immunofluorescence of anti-FZD5 Fab binding to CHO cells overexpressing Frizzled CRD
Parameters: key: −: no binding; +: very weak binder; ++: weak binder; +++: good binder; ++++: very good binder
MEASUREMENT LABEL: Immunofluorescence binding, Frizzled CRD overexpressed on CHO cells: FZD8

Known Immunofluorescence binding, Frizzled CRD overexpressed on CHO cells: FZD8 results, listed for orientation:
[
  {
    "MOLECULE": "Fab-2919: anti-FZD5 Fab with antibody variable region Fv-2919; CDR SEQ ID NOs: 35, 36, 58, 97, 134, 155 (antibody, V domains shown) VH: EVQLVESGGGLVQPGGSLRLSCAASGFNISYSYIHWVRQAPGKGLEWVASIYSSSGSTSYADSVKGRFTISADTSKNTAYLQMNSLRAEDTAVYYCARGAIDYWGQGTLVTVSS VL: DIQMTQSPSSLSASVGDRVTITCRASQSVSSAVAWYQQKPGKAPKLLIYSASSLYSGVPSRFSGSRSGTDFTLTISSLQPEDFATYYCQQWYSSGHVLITFGQGTKVEIK",
    "REPORTED": "++"
  },
  {
    "MOLECULE": "Fab-2928: anti-FZD5 Fab with antibody variable region Fv-2928; CDR SEQ ID NOs: 35, 36, 67, 105, 143, 175 (antibody, V domains shown) VH: EVQLVESGGGLVQPGGSLRLSCAASGFNISYSSIHWVRQAPGKGLEWVASIYPSYSSTYYADSVKGRFTISADTSKNTAYLQMNSLRAEDTAVYYCARYYAMDYWGQGTLVTVSS VL: DIQMTQSPSSLSASVGDRVTITCRASQSVSSAVAWYQQKPGKAPKLLIYSASSLYSGVPSRFSGSRSGTDFTLTISSLQPEDFATYYCQQAFYYPITFGQGTKVEIK",
    "REPORTED": "−"
  },
  {
    "MOLECULE": "Fab-2916: anti-FZD5 Fab with antibody variable region Fv-2916; CDR SEQ ID NOs: 35, 36, 55, 94, 131, 167 (antibody, V domains shown) VH: EVQLVESGGGLVQPGGSLRLSCAASGFNISYSSIHWVRQAPGKGLEWVASIYPSYSYTYYADSVKGRFTISADTSKNTAYLQMNSLRAEDTAVYYCARYGYYGMDYWGQGTLVTVSS VL: DIQMTQSPSSLSASVGDRVTITCRASQSVSSAVAWYQQKPGKAPKLLIYSASSLYSGVPSRFSGSRSGTDFTLTISSLQPEDFATYYCQQWYHYPYLITFGQGTKVEIK",
    "REPORTED": "+"
  },
  {
    "MOLECULE": "Fab-2932: anti-FZD5 Fab with antibody variable region Fv-2932; CDR SEQ ID NOs: 35, 36, 71, 108, 147, 153 (antibody, V domains shown) VH: EVQLVESGGGLVQPGGSLRLSCAASGFNISYSYMHWVRQAPGKGLEWVASIYSSYSSTSYADSVKGRFTISADTSKNTAYLQMNSLRAEDTAVYYCARGALDYWGQGTLVTVSS VL: DIQMTQSPSSLSASVGDRVTITCRASQSVSSAVAWYQQKPGKAPKLLIYSASSLYSGVPSRFSGSRSGTDFTLTISSLQPEDFATYYCQQWYGSFALITFGQGTKVEIK",
    "REPORTED": "+"
  },
  {
    "MOLECULE": "Fab-2901: anti-FZD5 Fab with antibody variable region Fv-2901; CDR SEQ ID NOs: 35, 36, 40, 79, 116, 154 (antibody, V domains shown) VH: EVQLVESGGGLVQPGGSLRLSCAASGFNISYSYMHWVRQAPGKGLEWVASIYSYSSYTYYADSVKGRFTISADTSKNTAYLQMNSLRAEDTAVYYCARSWYYWSPSSGMDYWGQGTLVTVSS VL: DIQMTQSPSSLSASVGDRVTITCRASQSVSSAVAWYQQKPGKAPKLLIYSASSLYSGVPSRFSGSRSGTDFTLTISSLQPEDFATYYCQQGGFLITFGQGTKVEIK",
    "REPORTED": "+"
  },
  {
    "MOLECULE": "Fab-2930: anti-FZD5 Fab with antibody variable region Fv-2930; CDR SEQ ID NOs: 35, 36, 69, 107, 145, 153 (antibody, V domains shown) VH: EVQLVESGGGLVQPGGSLRLSCAASGFNLSYYYIHWVRQAPGKGLEWVASIYPYSGSTSYADSVKGRFTISADTSKNTAYLQMNSLRAEDTAVYYCARGALDYWGQGTLVTVSS VL: DIQMTQSPSSLSASVGDRVTITCRASQSVSSAVAWYQQKPGKAPKLLIYSASSLYSGVPSRFSGSRSGTDFTLTISSLQPEDFATYYCQQWYGPYLITFGQGTKVEIK",
    "REPORTED": "+"
  },
  {
    "MOLECULE": "Fab-2902: anti-FZD5 Fab with antibody variable region Fv-2902; CDR SEQ ID NOs: 35, 36, 41, 80, 117, 153 (antibody, V domains shown) VH: EVQLVESGGGLVQPGGSLRLSCAASGFNISYYYIHWVRQAPGKGLEWVASISSSSSSTSYADSVKGRFTISADTSKNTAYLQMNSLRAEDTAVYYCARGALDYWGQGTLVTVSS VL: DIQMTQSPSSLSASVGDRVTITCRASQSVSSAVAWYQQKPGKAPKLLIYSASSLYSGVPSRFSGSRSGTDFTLTISSLQPEDFATYYCQQWYAFGALITFGQGTKVEIK",
    "REPORTED": "++"
  }
]

For the next question, use this molecule.
// query Immunofluorescence binding, Frizzled CRD overexpressed on CHO cells: FZD8 value for entry Fab-2922: anti-FZD5 Fab with antibody variable region Fv-2922; CDR SEQ ID NOs: 35, 36, 61, 99, 137, 171 (antibody, V domains shown) VH: EVQLVESGGGLVQPGGSLRLSCAASGFNIYSSYMHWVRQAPGKGLEWVASISPYSGYTSYADSVKGRFTISADTSKNTAYLQMNSLRAEDTAVYYCARTVRGSKKPYFSGWAMDYWGQGTLVTVSS VL: DIQMTQSPSSLSASVGDRVTITCRASQSVSSAVAWYQQKPGKAPKLLIYSASSLYSGVPSRFSGSRSGTDFTLTISSLQPEDFATYYCQQSFVYPYLITFGQGTKVEIK
// result +

Taken from patent US20210253718A1.
